assay_notes: Selectivity index, ratio of IC50 for human MRC5 cells to IC50 for […]
Type: toxicity, cell-based
run_conditions: read-out: Ratio IC50
Assign selectivity ratio to each entry below.
Please reply with the number alone, leaving off any unit.

Sample "Cc1cc(Br)cc2c3cn(C)c4ccc(Cl)cc4c-3nc12" — what was its selectivity ratio?
57.7

What value of selectivity ratio has been recorded for this entry: "Cn1cc2c3cc(F)ccc3nc-2c2cc(Cl)ccc21"
24.4

Quick one: selectivity ratio for "Cn1cc2c3ccc4ccccc4c3nc-2c2cc(Cl)ccc21" ?
33.6

What value of selectivity ratio has been reported for the following compound? "Cn1cc2c3ccccc3nc-2c2cc(Cl)ccc21"
47.1

Which selectivity ratio reading was recorded for the compound Cn1cc2c3ccccc3nc-2c2ccccc21 [ISOCRYPTOLEPINE] ?
14.3

Reported selectivity ratio for "Cn1cc2c3cc(Br)ccc3nc-2c2cc(OC(F)(F)F)ccc21" : what is it?
1500

Look at this compound and give its reported selectivity ratio. "COc1ccc2nc3c4cc(Cl)ccc4n(C)cc-3c2c1"
13.5

Bench note: what selectivity ratio did "Cn1cc2c3cc(Br)ccc3nc-2c2cc(F)ccc21" show?
1020
